Where do these numbers come from? They come from ChEMBL document CHEMBL2021852.

Test: Volume of distribution at steady state in rat at 0.8 mg/kg, iv and 4 mg/kg, po
Type: ADME, organism-based
Details: in vivo, read-out: Vdss
MEASURED_PARAMETER: Vd
Please provide the amount together with its unit, number first.

Per the record, COCCCC[C@@](O)(c1cccc(Cl)c1F)[C@@H]1CCCN(C(=O)NC[C@@H](N)CC2CCCCC2)C1.O=C(O)/C=C/C(=O)O has Vd of 101 L/kg

====

Experiment: Clearance in cynomolgus monkey at 1 mg/kg, iv
Format: ADME, organism-based, Macaca fascicularis
Design: dose 1 mg/kg, route intravenous
Settings: in vivo
MEASURED_PARAMETER: clearance (mL/min/kg)
Field: numeric (mL/min/kg). Do not append units.

Per the record, CNC[C@H](C[C@H]1CCCOC1)NC(=O)N1CCC[C@@H]([C@@H](OCCNC(=O)OC)c2cccc(Cl)c2)C1.O=C(O)/C=C/C(=O)O has clearance of 9.5

Per the record, COCCCOc1cc(C[C@@H](C[C@H](N)[C@@H](O)C[C@H](C(=O)NCC(C)(C)C(N)=O)C(C)C)C(C)C)ccc1OC.COCCCOc1cc(C[C@@H](C[C@H](N)[C@@H](O)C[C@H](C(=O)NCC(C)(C)C(N)=O)C(C)C)C(C)C)ccc1OC.O=C(O)/C=C/C(=O)O [ALISKIREN FUMARATE] has clearance of 2.5

Per the record, CN[C@H](CNC(=O)N1CCC[C@@H]([C@@H](OCCNC(=O)OC)c2cccc(Cl)c2)C1)C[C@H]1CCCOC1.O=C(O)/C=C/C(=O)O has clearance of 29.6
